Data credit: paper PMC9032516

EXPERIMENTAL DETAILS: Serum stability
Type: in vitro ADME
MEASUREMENT CONTEXT: human serum diluted 1:1 (v/v) with HEPES buffer; 0.05 mM in 1:1 human serum / HEPES buffer (10 mM, NaCl 150 mM, pH 7.8), 37 °C, over 24 h, methanol precipitation, HPLC peak area (401 nm for porphyrins), three independent replicates; read-out: t1/2 in human serum (converted)
No end group written: not given here.
QUANTITY NAME: half-life at 0.05 mM (h)
Respond with the bare value in h.

Answer with the recorded half-life at 0.05 mM of SGTQEEY-NH2 [P5, SGTQEEY-amide] only.
2.2
